From: patent US20230322924A1

This section presents binders with their documented % positive values.
Biological target: T1, human CD3 on human T cells (human, UniProt P07766 23-207)
T1 construct: Native TCR-CD3 complex on cells; also called primary human T cells; human pan T cells
T1 sequence (P07766 23-207 limits assumed): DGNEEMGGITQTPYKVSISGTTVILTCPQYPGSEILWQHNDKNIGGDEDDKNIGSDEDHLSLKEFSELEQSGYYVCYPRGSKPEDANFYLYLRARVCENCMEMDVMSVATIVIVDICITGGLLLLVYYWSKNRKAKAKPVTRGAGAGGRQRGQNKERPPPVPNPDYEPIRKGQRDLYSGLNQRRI
Experiment: flow cytometry, Jurkat CD3+ (E6-1)
Could you write the number and then its unit?

Some solved cases for reference:
binder | quantity-kind | value-reported
BLX-3G8 (antibody, V domains shown, OmniRat hybridoma supernatant: human V regions on rat constant regions; also called V regions cloned as CD3B317 (CD3H223/CD3L124)) VH: QVQLQQSGPGLVKPSQTLSLTCAISGDSVFNNNAAWTWIRQSPSRGLEWLGRTYYRSKWLYDYAVSVKSRITVNPDTSRNQFTLQLKSVTPEDTALYYCSRGYSSSFDYWGQGTLVTVSS VL: QSALTQPASVSGSPGQSITISCTGTSSNIGTYKFVSWYQQHPDKAPKVLLYEVSKRPSGVSSRFSGSKSGNTASLTISGLQAEDQADYHCCSYAGSGTLLFGGGTKLTVL | % positive | 77%
BLX-1F8 (antibody, V domains shown, OmniRat hybridoma supernatant: human V regions on rat constant regions; also called V regions cloned as CD3B314 (CD3H220/CD3L126)) VH: QVQLQQSGPGLVKPSQTLSLTCAISGDSVFNNNAAWSWIRQSPSRGLEWLGRTYYRSKWLYDYAVSVKSRITVNPDTSRNQFTLQLKSVTPEDTALYYCSRGYSSSFDYWGQGTLVTVSS VL: QSALTQPASVSGSPGQSITISCTGTSSDIGTYKFVSWYQQHPDKAPKVLLYEVSKRPSGVSSRFSGSKSDNTASLTISGLQAEDQADYHCCSYAGSGTLLFGGGTKLTVL | % positive | 53%
BLX-3F4 (antibody, V domains shown, OmniRat hybridoma supernatant: human V regions on rat constant regions; also called V regions cloned as CD3B316 (CD3H222/CD3L124)) VH: QVRLQQSGPGLVKPSQTLSLTCAISGDSVFNNNAAWSWIRQSPSRGLEWLGRTYYRSKWLYDYAVTVKSRITVNPDTSRNQFTLQLTSVTPEDTALYYCARGYSSSFDYWGQGTLVTVSS VL: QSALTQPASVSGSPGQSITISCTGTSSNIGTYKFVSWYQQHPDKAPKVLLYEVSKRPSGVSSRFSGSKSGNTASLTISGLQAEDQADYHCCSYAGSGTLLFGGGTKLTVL | % positive | 66%

get_value(item= BLW-2E6 (antibody, V domains shown, OmniRat hybridoma supernatant: human V regions on rat constant regions; also called V regions cloned as CD3B312 (CD3H219/CD3L124)) VH: QVQLQQSGPRLVRPSQTLSLTCAISGDSVFNNNAAWSWIRQSPSRGLEWLGRTYYRSKWLYDYAVSVKSRITVNPDTSRNQFTLQLNSVTPEDTALYYCARGYSSSFDYWGQGTLVTVSS VL: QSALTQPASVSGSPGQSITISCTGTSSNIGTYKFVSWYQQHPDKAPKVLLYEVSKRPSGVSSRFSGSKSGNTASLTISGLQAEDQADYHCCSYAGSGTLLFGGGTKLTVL , readout=% positive) returns 3%
